From: patent US4613596A

Measured LD50 at 240 h by item
# PROCEDURE SUMMARY: Acute toxicity (LD50) in rat
# Format: in vivo
# SETTINGS: in vivo, im, intramuscular, 10 days observation, read-out: LD50, rat, intram. admin.
# Procedure: Acute toxicity was studied in male and female mice of Swiss stock, and in male and female albino rats of Wistar stock, by administering the active principle orally, intravenously and intramuscularly. […] On termination of the period of observation, the LD50 and the relative reliability limits were calculated by the method of Litchfield and Wilcoxon (Pharmacol. Exp. Ther., 96-19, 1949).
Write the answer as a number in mg/kg, unit excluded.

>>> print(df.to_string())
                                   compound  experimental_result
0  CN(C)Cc1ccc(CSCCNC(=C[N+](=O)[O-])N2CCN(Cc3ccccc3)CC2)o1 [AU/006]                 2100
1  CCN1CCCC(NC(=C[N+](=O)[O-])NCCSCc2ccc(CN(C)C)o2)C1 (centres unmarked) [AU/003]                 2200
2  CN(C)Cc1ccc(CSCCNC(=C[N+](=O)[O-])N[C@H]2C[C@H]3CC[C@@H]2C3)o1 (relative stereo) [AU/019]                 2100
3  CC1CCN(C(=C[N+](=O)[O-])NCCSCc2ccc(CN(C)C)o2)CC1 [AU/002]                 2000
4  CN(C)Cc1ccc(CSCCNC(=C[N+](=O)[O-])NC2CCCC2)o1 [AU/016]                 2200

For the compound CN(C)Cc1ccc(CSCCNC(=C[N+](=O)[O-])N2CCCCCC2)o1 [AU/013] , what LD50 at 240 h is on record?
2100

For the compound CN(C)Cc1ccc(CSCCNC(=C[N+](=O)[O-])N2CCC(Cc3ccccc3)CC2)o1 [AU/005] , what LD50 at 240 h is on record?
2100

For the compound CN(C)Cc1ccc(CSCCNC(=C[N+](=O)[O-])NC2CCCCC2)o1 [AU/009] , what LD50 at 240 h is on record?
2200
